Ref: the supplement of paper PMC11417369

Test system: PF3D7_0420300 AP2 domain 1 (GST-tagged)
Test: gcPBM binding intensity (ln(normalized median fluorescence intensity)); higher = stronger DNA binding
In all, about 25,000 sequences were measured (“ln(normalized median fluorescence intensity)”: median about 9.3, highest 2% from about 10 on). Many of the other results were omitted from the sample, so the highest values are more common in it than they were.
Examples of sequences with documented gcPBM binding intensity (ln) follow.

[
  {
    "sequenceData": "TGTTTGTAATTATGTATGCACTTTTTTGTATGTGTG [GTGCAC_site9668]",
    "gcPBM binding intensity (ln)": 9.58
  },
  {
    "sequenceData": "ATATATATATAATTATATAAAATATATCATATGTTA [XGTACX_negctrl_site47]",
    "gcPBM binding intensity (ln)": 9.15
  },
  {
    "sequenceData": "AAAAAATATATATATATATATATGTAATATTTTTTT [XGTACX_negctrl_site439]",
    "gcPBM binding intensity (ln)": 9.07
  },
  {
    "sequenceData": "TATAAATAAATATACACACACACATATAAATATGTA [CACACA_site6504]",
    "gcPBM binding intensity (ln)": 10.1
  },
  {
    "sequenceData": "TTTAATCATATGTTATATAATAAGCCCCCCCCCCAA [CACACA_negctrl_site486]",
    "gcPBM binding intensity (ln)": 10.4
  }
]
